molecular target: BCL6 BTB domain (Homo sapiens (Human))
Entries whose Kd is below 20 nM take Yes; entries at or above 20 nM take No.

{"columns": ["compound", "target-or-system", "category"],
 "data": [
  ["C[C@H]1CN(CC(CO)CO)CCN1c1cc(NC(=O)Cn2cc(-c3cc(C(N)=O)c(O)c(F)c3F)c3c(=O)n(C)cnc32)c(Cl)c(F)n1 [Compound I-463]", "BCL6 BTB domain (Homo sapiens (Human))", "Yes"],
  ["CN1CC2(CCN(c3cc(NC(=O)Cn4cc(-c5cc(C(N)=O)c(O)c(F)c5F)c5c(=O)n(C)cnc54)c(Cl)cn3)C2)C1 [Compound I-483]", "BCL6 BTB domain (Homo sapiens (Human))", "No"],
  ["Cn1cnc2c(c(-c3cc(Cl)c(O)c(C(N)=O)c3)cn2CC(=O)Nc2ccc(C#N)cc2Cl)c1=O [Compound I-384]", "BCL6 BTB domain (Homo sapiens (Human))", "No"],
  ["CO[C@@H]1CN(c2cc(NC(=O)Cn3cc(-c4cc(Cl)c(O)c(C(N)=O)c4)c4c(=O)n(C)cnc43)c(Cl)cn2)C[C@@H]1F [Compound I-365]", "BCL6 BTB domain (Homo sapiens (Human))", "Yes"],
  ["C[C@H]1COCCN1c1cc(NC(=O)Cn2cc(-c3cc(Cl)c(O)c(C(N)=O)c3)c3c(=O)n(C)c(Cl)nc32)c(Cl)cn1 [Compound I-262]", "BCL6 BTB domain (Homo sapiens (Human))", "No"],
  ["COc1cc(NC(=O)Cn2cc(-c3cc(Cl)c(O)c(C(N)=O)c3)c3c(=O)n(C)c(O)nc32)c(Cl)cn1 [Compound I-290]", "BCL6 BTB domain (Homo sapiens (Human))", "No"],
  ["Cn1cnc2c(c(-c3cc(Cl)c(O)c(C(N)=O)c3)cn2CC(=O)Nc2cc(N3CCOC(C(F)(F)F)C3)ncc2Cl)c1=O (stereo not shown) [Compound I-256]", "BCL6 BTB domain (Homo sapiens (Human))", "No"],
  ["CN1CCC2(C1)CN(c1cc(NC(=O)Cn3cc(-c4cc(Cl)c(O)c(C(N)=O)c4)c4c(=O)n(C)cnc43)c(Cl)cn1)CCO2 (stereo not shown) [Compound I-133]", "BCL6 BTB domain (Homo sapiens (Human))", "No"],
  ["C[C@H]1CN(CC(F)F)CCN1c1cc(NC(=O)Cn2cc(-c3cc(C(N)=O)c(O)c(F)c3F)c3c(=O)n(C)cnc32)c(Cl)c(F)n1 [Compound I-469]", "BCL6 BTB domain (Homo sapiens (Human))", "No"],
  ["Cn1cnc2c(c(-c3cc(F)c(O)c(C(N)=O)c3)cn2CC(=O)Nc2cc(N3C4CCC3COC4)ncc2Cl)c1=O [Compound I-436]", "BCL6 BTB domain (Homo sapiens (Human))", "Yes"],
  ["CC(C)N1CCN(c2cc(NC(=O)Cn3cc(-c4cc(F)c(O)c(C(N)=O)c4)c4c(=O)n(C)cnc43)c(Cl)cn2)[C@@H](C)C1 [Compound I-295]", "BCL6 BTB domain (Homo sapiens (Human))", "Yes"],
  ["Cn1cnc2c(c(-c3cc(Cl)c(O)c(C(N)=O)c3)cn2CC(=O)NC2CCCc3ncccc32)c1=O (stereo not shown) [Compound I-257]", "BCL6 BTB domain (Homo sapiens (Human))", "No"],
  ["Cn1cnc2c(c(-c3cc(C(N)=O)c(O)c(F)c3F)cn2CC(=O)Nc2cc(N3CCCC3)ncc2Cl)c1=O [Compound I-298]", "BCL6 BTB domain (Homo sapiens (Human))", "No"]
]}
